System: Bacteroides fragilis sp. thetaiotaomicron 1438
Assay: Susceptibility of anaerobic bacteria, agar dilution
Type: cell-based
Details: 24 h; Bacteroides fragilis sp. thetaiotaomicron 1438; read-out: 24 Hr. Minimum Inhibitory Concentration
RESULT_TYPE: log10(MIC) (log10 of the value in µg/mL)
A difference of one corresponds to tenfold MIC; all values are log10 with MIC in µg/mL.

Record excerpt, results attached:
CC(=O)Nc1c(C#N)c(-c2ncc([N+](=O)[O-])n2C)nn1C [Compound 8] :: -0.30
CC(=O)Nc1c(C(=O)O)c(-c2ncc([N+](=O)[O-])n2C)nn1C [Compound 12] :: 0.30

Q: Entry Cn1nc(-c2ncc([N+](=O)[O-])n2C)c(C(=O)O)c1N [Compound 10A] has what log10(MIC)?
A: -0.60

Q: Entry C=CCOC=Nc1c(C#N)c(-c2ncc([N+](=O)[O-])n2C)nn1C [Compound 13A] has what log10(MIC)?
A: -0.60

Q: Entry CCNc1cc(-c2ncc([N+](=O)[O-])n2C)nn1C [Compound 11A] has what log10(MIC)?
A: -1.22

Q: Entry CN(C)S(=O)(=O)Nc1c(C#N)c(-c2ncc([N+](=O)[O-])n2C)nn1C [Compound 20] has what log10(MIC)?
A: 0.60

Q: Entry CCCCC(CC)COC=Nc1c(C#N)c(-c2ncc([N+](=O)[O-])n2C)nn1C (stereo not shown) [Compound 13D] has what log10(MIC)?
A: 0.00

* * *

Tested on: Bacteroides fragilis sp. fragilis 1936B
Assay: Susceptibility of anaerobic bacteria, agar dilution
Format: cell-based
Details: 24 h; Bacteroides fragilis sp. fragilis 1936B; read-out: 24 Hr. Minimum Inhibitory Concentration
RESULT_TYPE: log10 MIC (log10 of the value in µg/mL)
A difference of one corresponds to tenfold MIC; all values are log10 with MIC in µg/mL.

CCNc1cc(-c2ncc([N+](=O)[O-])n2C)nn1C [Compound 11A] :: 0.30

Q: Under Bacteroides fragilis sp. fragilis 1936B: log10 MIC value of "CN(C)S(=O)(=O)Nc1c(C#N)c(-c2ncc([N+](=O)[O-])n2C)nn1C" ?
A: 0.30

Q: Under Bacteroides fragilis sp. fragilis 1936B: log10 MIC value of CCCCC(CC)COC=Nc1c(C#N)c(-c2ncc([N+](=O)[O-])n2C)nn1C (stereo not drawn) [Compound 13D] ?
A: -0.30

Q: Under Bacteroides fragilis sp. fragilis 1936B: log10 MIC value of Cn1nc(-c2ncc([N+](=O)[O-])n2C)c(C(=O)O)c1N [Compound 10A] ?
A: 0.90

Q: Under Bacteroides fragilis sp. fragilis 1936B: log10 MIC value of "CC(=O)Nc1c(C#N)c(-c2ncc([N+](=O)[O-])n2C)nn1C" ?
A: -0.60

Q: Under Bacteroides fragilis sp. fragilis 1936B: log10 MIC value of "CCn1nc(-c2ncc([N+](=O)[O-])n2C)c(C#N)c1N" ?
A: -0.60

* * *

# MIC values compiled below
System: Fusobacterium symbiosum 1470
Assay: Susceptibility of anaerobic bacteria, agar dilution
Format: cell-based
Conditions: Fusobacterium, 1470, 24 h, read-out: 24 Hr. Minimum Inhibitory Concentration

Q: Entry Cn1c([N+](=O)[O-])cnc1-c1nn(CCCl)c(N)c1C#N [Compound 15] has what MIC?
A: < 0.125 µg/mL

Q: Entry CC[C@H]1OC(=O)[C@H](C)[C@@H](O[C@H]2C[C@@](C)(OC)[C@@H](O)[C@H](C)O2)[C@H](C)[C@@H](O[C@@H]2O[C@H](C)C[C@H](N(C)C)[C@H]2O)[C@](C)(O)C[C@@H](C)C(=O)[C@H](C)[C@@H](O)[C@]1(C)O [Erythromycin, erythromycin, reference compound] has what MIC?
A: < 0.5 µg/mL

Q: Entry COC=Nc1c(C#N)c(-c2ncc([N+](=O)[O-])n2C)nn1C [Compound 6] has what MIC?
A: < 0.125 µg/mL

Q: Entry CCn1nc(-c2ncc([N+](=O)[O-])n2C)c(C#N)c1N [Compound 16] has what MIC?
A: < 0.125 µg/mL

Q: Entry CC(=O)OCC1=C(C(=O)O)N2C(=O)[C@@H](NC(=O)Cc3cccs3)[C@H]2SC1 [Cephalothin, cephalothin, reference compound] has what MIC?
A: 64 µg/mL

Numbers sourced from patent US3980794A.
